molecular target: T1, cynomolgus monkey IL-6 (cynomolgus monkey, UniProt P79341 28-212, limits assumed); test: SPR (Biacore), periplasmic Fab
T1 construct: Immobilised on the Biacore chip
OBSERVED_PROPERTY: koff

[
  {
    "BINDER": "55A11 (Fab, V domains shown, Periplasmic Fab; Suffix 'd' of the label not explained; also called 55A11d) VH: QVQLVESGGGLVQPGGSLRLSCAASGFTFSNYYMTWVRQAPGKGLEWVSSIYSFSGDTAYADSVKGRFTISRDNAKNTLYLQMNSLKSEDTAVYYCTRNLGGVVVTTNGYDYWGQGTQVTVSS VL: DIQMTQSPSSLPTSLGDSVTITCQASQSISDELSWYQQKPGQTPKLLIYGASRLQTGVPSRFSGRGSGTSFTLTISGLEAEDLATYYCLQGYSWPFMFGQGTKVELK",
    "RESULT": "8.17e-05 s⁻¹"
  },
  {
    "BINDER": "48H1 (Fab, V domains shown, Periplasmic Fab; Suffix 'g2, R4' not explained; also called 48H1g2, R4) VH: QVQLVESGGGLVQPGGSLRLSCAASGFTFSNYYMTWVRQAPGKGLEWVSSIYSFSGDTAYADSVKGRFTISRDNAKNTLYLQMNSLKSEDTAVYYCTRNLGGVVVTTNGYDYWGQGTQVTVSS VL: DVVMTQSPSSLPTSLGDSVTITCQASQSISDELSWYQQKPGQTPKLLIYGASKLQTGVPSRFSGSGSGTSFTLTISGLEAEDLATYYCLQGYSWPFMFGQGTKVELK",
    "RESULT": "9.46e-05 s⁻¹"
  }
]

Now look at this entry.
For the binder 55C11 (Fab, V domains shown, Periplasmic Fab; Suffix 'f' not explained; also called 55C11f) VH: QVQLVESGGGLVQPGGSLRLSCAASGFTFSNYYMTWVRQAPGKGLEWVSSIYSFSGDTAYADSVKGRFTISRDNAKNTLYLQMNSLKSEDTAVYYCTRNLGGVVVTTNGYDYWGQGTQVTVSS VL: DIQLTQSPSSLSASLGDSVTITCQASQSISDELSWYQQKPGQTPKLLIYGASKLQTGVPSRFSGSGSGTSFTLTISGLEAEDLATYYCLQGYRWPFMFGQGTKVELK , give its measured koff value.
8.9e-05 s⁻¹
